Test system: OVCAR-8
assay_details: NCI tumour cell line growth inhibition, 48 h
Active and inactive are the calls of the source. Rule as the data show it: active = GI50 up to about 1.1 µM and inactive = higher.
Choose the fitting class; nothing outside active, inactive is accepted.

Query: Returns: the outcome recorded for CN(C)c1ccc(-c2c(C#N)c(O)n(NS(=O)(=O)c3ccccc3)c(=O)c2C#N)cc1 in this assay.
Reply: inactive

Query: # outcome recorded in this test, key = COc1cc(/C=N/n2c(-c3ccccc3)n[nH]c2=O)cc(OC)c1OC
Reply: inactive

Query: Record request — test call for CCC(C(C)N1CC(=O)NC(=O)C1)N1CC(=O)NC(=O)C1 (stereo not drawn)
Reply: inactive

Query: Please share the test call associated with Cn1nc(C(=O)N2CC(CCl)c3c2cc(N)c2ccccc32)cc1NC(=O)Nc1cc(C(=O)N2CC(CCl)c3c2cc(N)c2ccccc32)nn1C (stereo not drawn) .
Reply: active

Query: Hey, what did the test say about CCNC(=O)Cc1nc2c(O)ncnc2n1C1OC(CO)C(O)C1O (stereo not drawn) ?
Reply: inactive

Query: # lookup: test call for O=c1cccc2n1C[C@H]1CNC[C@H]2C1
Reply: inactive

Query: Recorded call for C=CCn1c(=S)sc2c(O)ncnc21 ?
Reply: inactive

Query: Outcome logged for CCOP(=O)(CCCC(O)CNc1nc(N)nc(Cl)c1/N=N/c1ccc(Cl)cc1)OCC (stereo not drawn) in this assay:
Reply: inactive

Query: What did this assay record as the result for COc1cc2oc(=O)cc(C)c2c(OC)c1OC(C)=O ?
Reply: inactive

Query: Look up the recorded call for COC(=O)c1c(O)ccc2[nH]c3c(O)c4ccccc4cc3c12 in this test.
Reply: inactive

Query: State the result this test recorded for O=C(NNc1ccccc1)c1ccc(Cl)c(Cl)c1 .
Reply: inactive

Query: Hi team, can someone confirm the assay call for CCCCCCCCCCCCCC(=O)OCC1OC(n2cc(F)c(=O)[nH]c2=O)C(NC(=O)OCc2ccccc2)C(OC(=O)CCCCCCCCCCCCC)C1O (stereo not drawn) ?
Reply: inactive
